tested on: TRPC4 beta (transient receptor potential cation channel C4), mouse; test: potentiation of DAMGO EC20 TRPC4 response – cell-based, Fluo-4, HEK293 TRPC4beta/mu-opioid, confirmation (AID 2555); conditions: DAMGO EC20, Fluo-4 calcium flux, at 10 µM
Calls of active or inactive are those of the source.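 How the source made its calls: active means primary screen hit whose calcium fluorescence ratio, in both repeats, exceeds the weak agonist control mean by 3 SD; inactive means the rest.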
Choose the fitting class; nothing outside Yes = active, No = inactive is accepted.

(Q) Assay result, entry CC(C)C(=O)N1CCN(c2nc(-c3ccccc3)c3c(c2C#N)CCCC3)CC1 — outcome?
(A) Yes

(Q) Assay result, entry Cc1oc(-c2ccc(Cl)cc2)nc1CN1CCC(C(=O)N2CCc3ccccc3C2)CC1 — outcome?
(A) Yes

(Q) Assay result, entry CCCCCCCCCCOC(=O)Cn1c(COc2ccccc2)[n+](C)c2ccccc21 — outcome?
(A) No

(Q) Assay result, entry CCOc1ccc(NS(=O)(=O)c2ccc(NC(=S)NC(=O)CC(C)C)cc2)cc1 — outcome?
(A) Yes

(Q) Assay result, entry CC1CC(C)CN(CCCNC(=O)Cn2cccc2C(=O)c2ccccc2)C1 (stereo unspecified) — outcome?
(A) No

(Q) Assay result, entry Cc1ccc(Cl)c(OCCN2CCCC(C)C2)c1 (stereo unspecified) — outcome?
(A) No

(Q) Assay result, entry COc1ccc2nc(SCCN(C)C)[nH]c2c1 — outcome?
(A) No

(Q) Assay result, entry COc1ccc2nc(NCc3ccccc3)[nH]c2c1 — outcome?
(A) No

(Q) Assay result, entry Cc1oc(-c2ccc(Cl)cc2)nc1CN1CCC(C(=O)NCc2cccs2)CC1 — outcome?
(A) No

(Q) Assay result, entry Cc1cc(OCC(=O)Nc2ccc(N3CCN(C)CC3)cc2)ccc1Cl — outcome?
(A) No

(Q) Assay result, entry Cc1nc2ccccc2n1CC(O)COc1ccccc1Cl (stereo unspecified) — outcome?
(A) No

(Q) Assay result, entry O=C(COC(=O)Cn1cnc2ccccc2c1=O)Nc1ccccc1Sc1ccc(Cl)cc1 — outcome?
(A) No

(Q) Assay result, entry Cn1cc(CNCC2CCCO2)c(-c2ccc(Oc3ccccc3)cc2)n1 (stereo unspecified) — outcome?
(A) No

(Q) Assay result, entry NC(=O)C1CCCN(CCc2ccccc2)C1 (stereo unspecified) — outcome?
(A) No

(Q) Assay result, entry COC(=O)c1ccc(/C=N/N2CCN(Cc3ccc(C)cc3C)CC2)cc1 — outcome?
(A) Yes

(Q) Assay result, entry Nc1c2c(nc3ccccc13)N(c1ccccc1)CC2 — outcome?
(A) No

The measurements presented in this section are drawn from PubChem BioAssay.
